# system: Vasopressin V2 (Rattus norvegicus)
# Sequence (Q00788 whole entry): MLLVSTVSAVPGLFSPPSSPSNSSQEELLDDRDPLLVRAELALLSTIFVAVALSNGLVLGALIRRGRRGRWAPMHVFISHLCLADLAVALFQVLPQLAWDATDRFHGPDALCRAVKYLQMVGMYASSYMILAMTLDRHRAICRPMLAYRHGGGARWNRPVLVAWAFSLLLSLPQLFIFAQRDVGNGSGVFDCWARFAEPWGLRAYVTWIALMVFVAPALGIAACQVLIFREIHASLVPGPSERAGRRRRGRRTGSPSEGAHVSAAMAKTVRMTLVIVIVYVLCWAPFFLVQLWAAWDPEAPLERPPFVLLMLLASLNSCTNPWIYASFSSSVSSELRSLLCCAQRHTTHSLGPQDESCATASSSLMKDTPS
# test.method.notes: Vasopressin V2 agonist effects in normal conscious homozygous Brattleboro rats with central diabetes insipidus
# Type: in vivo
# Parameters: from tissue; host or cells: whole living homozygous Brattleboro rat; the receptor is the animal's own
# condition.details: Brattleboro (BB) rats, 10 mg/kg oral, change in osmolality as percent of control
Field: label. Allowed values: Satisfied (Osmolality (% Increase) < 300%) or Not satisfied (Osmolality (% Increase) >= 300%).

Here's what some known entries look like.
| item.smiles | qualitative.label |
| --- | --- |
| Cn1ncnc1-c1ccc(C(=O)N2Cc3cccn3Cc3ccccc32)cc1 | Satisfied |
| CC(=O)n1ccc(-c2ccc(C(=O)N3Cc4cccn4Cc4ccccc43)cc2)n1 | Not satisfied |
| Cc1ccccc1C(=O)n1ccc(-c2ccc(C(=O)N3Cc4cccn4Cc4ccccc43)cc2)n1 | Satisfied |
| O=C(c1ccc(-c2ccn(C(=O)c3ccc(Cl)cc3Cl)n2)cc1)N1Cc2cccn2Cc2ccccc21 | Satisfied |

Now examine the next entry.
Does `O=C(c1ccc(-c2ccn(C(=O)c3cccs3)n2)cc1)N1Cc2cccn2Cc2ccccc21` have Osmolality (% Increase) strictly under 300%?
Not satisfied
